B1: KLHL12 (parent)
chain: LDYTADEDGVWYSVAPMNVRRGLA

- Variants of: B1
- assay_method_text: protein stability index of a GFP-peptide fusion (GPS, HEK-293T) (PSI 1-6); higher = more stable;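 note: lentivirally expressed fusions sorted by FACS into six bins by GFP to DsRed ratio, PSI derived from sequencing read proportions per bin multiplied by bin number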
- applied_conditions: c terminus: a fixed tail appended
assay_endpoint: protein stability index

Field: example entries. Status: answers known.
| alteration | assay_endpoint | readout_value |
| --- | --- | --- |
| Y3S | protein stability index | 3.61 |
| D8L | protein stability index | 1.73 |
| R21Y | protein stability index | 1.47 |
| S13P | protein stability index | 2.57 |
| W11I | protein stability index | 2.61 |
| M17W | protein stability index | 1.89 |
| G9C | protein stability index | 1.47 |
| L23G | protein stability index | 2.29 |
| V10G | protein stability index | 3.38 |
| V10H | protein stability index | 2.44 |

Sample A15C ; protein stability index observed: 1.74

For reference, reported protein stability index for D8V stands at 1.6

Given item R20L , the value recorded as its protein stability index is 2.26
